Assay: human hepatoma cell viability loss – ATP luminescence, cytotoxicity control for P. falciparum antimalarial project, primary screen (AID 2303);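 further: 0% = DMSO wells and 100% = digitonin-killed cells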
Conditions: HepG2 viability, 24-48 h, at 10 µM, hits give high values
Each record here notes measured inhibition.
Measured attribute: inhibition (%)

molecule=Cc1cnc(Nc2ccccc2)nc1NCCC(=O)Nc1ccccc1 measured_attribute=inhibition recorded_number=10
molecule="CCN1CCCC1CN(Cc1ccc(-c2ccc(C(F)(F)F)cc2)cc1)C(=O)Cn1c(CCc2cccc(F)c2F)nc(=O)c2ccccc21 (stereo not drawn)" measured_attribute=inhibition recorded_number=40
molecule="CCN=C1NC2=C(CC(C(C)(C)C)CC2)C2(CCC(C(C)(C)C)CC2)S1 (stereo not drawn)" measured_attribute=inhibition recorded_number=40

====

Assay: inhibition of 3D7 malaria parasite growth – strain 3D7 (AID 2306);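 further: 0% = DMSO wells and 100% = chloroquine plus artemisinin control wells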
Conditions: P. falciparum 3D7 erythrocytic growth, LDH absorbance, 72 h; at 2 µM; hits give high values
The source made the active and inactive calls. How the calls were made is not given here.
Measured attribute: growth inhibition

molecule=CC(=O)Nc1ncc(C(=O)Nc2ccc(-c3cccc(-c4nc5ccc(F)cc5[nH]4)c3)cc2)s1 measured_attribute="growth inhibition" result="102% (active)"
molecule=COc1cccc(NC(=O)c2nc(N3CCN(c4ccncc4)CC3)ccc2Cl)c1 measured_attribute="growth inhibition" result="97% (active)"
molecule=Cc1ccc(NC(=O)c2ccc(CN3CCCN(CC4CCCCC4)CC3)cc2)cc1F measured_attribute="growth inhibition" result="92% (active)"
molecule=Cc1[nH]c(C)c(-c2ccc(-c3ccc(OC(F)(F)F)cc3)nc2)c(=O)c1Cl measured_attribute="growth inhibition" result="95% (active)"
molecule=COc1ccc(C(=O)Nc2ccc(-c3nc4ccc(C)cc4[nH]3)cc2)cc1OC measured_attribute="growth inhibition" result="100% (active)"
molecule=CN1C(=O)C(=O)N(CCCCCON=C(N)N)C1=S measured_attribute="growth inhibition" result="101% (active)"
molecule=Cc1ccc(NC(=O)c2ccnc(N3CCN(c4ccncc4)CC3)c2)cc1F measured_attribute="growth inhibition" result="94% (active)"
molecule=CN(CC(=O)Nc1cc(C(F)(F)F)ccc1-n1cncn1)Cc1nc2ccccc2s1 measured_attribute="growth inhibition" result="87% (active)"
molecule=CCCCCCOc1ccc(C(N)=NCc2ccccc2)c2c1CCCC2 measured_attribute="growth inhibition" result="96% (active)"
molecule=O=C(NCC1CCN(CCN2CCc3ccc4c(c3C2)OCO4)CC1)c1ccc(-c2ccc(C(F)(F)F)cc2)cc1 measured_attribute="growth inhibition" result="93% (active)"
molecule="COCCNC(=O)C(CNC(=O)c1ccc2c(c1)OCO2)NC(=O)c1ccc(-c2ccccc2)cc1 (centres undefined)" measured_attribute="growth inhibition" result="90% (active)"
molecule=O=C(Cn1c(CCc2cccc(F)c2F)cc(=O)c2cccnc21)N(CCCn1ccnc1)Cc1ccc(-c2ccc(C(F)(F)F)cc2)cc1 measured_attribute="growth inhibition" result="96% (active)"
molecule="O=S(=O)(Nc1ccc(CCN2CCCCC2CCN2CCCC2)cc1)c1ccc(-c2ccccc2)cc1 (centres undefined)" measured_attribute="growth inhibition" result="98% (active)"
molecule="Cc1cccc2[nH]c(-c3cccc(-c4ccc(NC(=O)C5CCCO5)cc4)c3)nc12 (centres undefined)" measured_attribute="growth inhibition" result="91% (active)"

====

Assay: antimalarial activity against Dd2 strain (AID 2302);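 further: 0% = DMSO untreated growth and 100% = chloroquine plus artemisinin killed control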
Details: P. falciparum Dd2 in RBCs, LDH growth readout, 72 h; at 2 µM
Activity calls are given as the source filed them.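 Rule for the calls: active = growth inhibition above 50% at the single 2 µM test dose, taken to imply half-maximal potency below 2 µM; inactive = the rest.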
Labels: active, inactive

compound=CCCCN1CCN(c2cc(NS(=O)(=O)c3ccc(C(=O)Nc4ccc(C(F)(F)F)cc4)cc3)ccc2OC)CC1 answer_label=inactive
compound=O=C(/C=C/c1ccc(Cl)c(Cl)c1)NCC1CCN(Cc2ccc(O)cc2)CC1 answer_label=inactive
compound=O=C(Nc1cccc(-c2cccc(-c3nc4ccccc4[nH]3)c2)c1)Nc1ccc2c(c1)OCO2 answer_label=active
compound=O=C(/C=C/c1ccc(Cl)c(Cl)c1)NCCCCCN1CCC(NC(=O)NC2CCCC2)CC1 answer_label=inactive
compound=O=S(=O)(c1cc(Cl)sc1Cl)N(CCC(O)(C(F)(F)F)C(F)(F)F)Cc1cccc(O)c1 answer_label=active
compound="Cc1nc(Nc2ccc(F)cc2)nc(N2CCc3cc(O)ccc3C2C)c1C (stereo not given)" answer_label=active
compound="Cc1cc(C(=O)Nc2ccc3c(c2)CCN3C2CCN(Cc3ccc4nsnc4c3)C2)no1 (stereo not given)" answer_label=active
compound=Cc1[nH]c(CNCCCNc2cc(=O)c3ccccc3[nH]2)c(Br)c1Br answer_label=inactive
compound=Cc1cccc(NC(=O)NCc2ccccc2)n1 answer_label=inactive
compound=NCC(=O)Nc1cccc(Nc2nccc(-c3c(-c4cccc(NC(=O)c5ccccc5)c4)nn4ccccc34)n2)c1 answer_label=active
compound=CC(C)c1ccc2c(c1)c(SC(C)(C)C)c(CC(C)(C)C#N)n2Cc1ccc(Cl)cc1 answer_label=active
compound=O=C(CSc1n[nH]c(-c2ccccc2Br)n1)c1c[nH]c2ccccc12 answer_label=active
compound="N#Cc1ccc2c(c1)CCN(CCC1CCC(NC(=O)/C=C/c3ccc4[nH]ccc4c3)CC1)CC2 (stereo not given)" answer_label=inactive
compound=O=C1SC(=Cc2ccc(O)c(O)c2)C(=O)N1c1ccccc1 answer_label=inactive
compound=COc1cc2ccccc2c(OC)c1CCNCCCCNCCc1c(OC)cc2ccccc2c1OC answer_label=inactive
